Target: T1, human CD7 on cells (human, UniProt P09564 26-240)
T1 construct: whole, on cells; Target of the FACS and cell capture values and of the kill assays on CD7 single positive cells; also called CD7+ cells; Jurkat (CD33-/CD7+)
T1 sequence (looked up): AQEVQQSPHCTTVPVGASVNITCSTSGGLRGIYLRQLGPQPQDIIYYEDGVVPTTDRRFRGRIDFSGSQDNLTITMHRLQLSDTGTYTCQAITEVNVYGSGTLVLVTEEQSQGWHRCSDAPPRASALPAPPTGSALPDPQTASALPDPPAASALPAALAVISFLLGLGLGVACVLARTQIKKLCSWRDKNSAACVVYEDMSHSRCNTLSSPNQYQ
Experiment: FACS; cells not named
ASSAY ENDPOINT: FACS binding
Just the number, please, no unit attached.

7-PP-9 (Fab, V domains shown) VH: QVQLQESGAELVKPGASVKLSCKASGYTFTSYWMHWVKQRPGQGLEWIGKINPSNGRTNYNEKFKSKATLTVDKSSSTAYMQLSSLTSEDSAVYYCARGGVTYDLYYAALDYWGQGTTVTVSS VL: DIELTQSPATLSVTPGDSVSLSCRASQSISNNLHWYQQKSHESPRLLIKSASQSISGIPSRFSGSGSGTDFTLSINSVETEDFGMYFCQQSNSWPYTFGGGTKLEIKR; 275
7-PP-4 (Fab, V domains shown) VH: QVQLQESGAELVKPGASVKLSCKASGYTFTSYWMHWVKQRPGQGLEWIGKINPSNGRTNYNEKFKSKATLTVDKSSSTAYMQLSSLTSEDSAVYYCARGGVTYDLYYYALDYWGQGTTVTVSS VL: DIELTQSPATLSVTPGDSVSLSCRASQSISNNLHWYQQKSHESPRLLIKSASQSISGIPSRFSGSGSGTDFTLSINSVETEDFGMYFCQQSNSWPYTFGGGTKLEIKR; 1990

// switching to the query binder
The reported value for 7-PP-11 (Fab, V domains shown) VH: QVQLQESGAELVKPGASVKLSCKASGYTFTSYWMHWVKQRPGQGLEWIGKINPSNGRTNYNEKFKSKATLTVDKSSSTAYMQLSSLTSEDSAVYYCARGGVYYALYYAALDYWGQGTTVTVSS VL: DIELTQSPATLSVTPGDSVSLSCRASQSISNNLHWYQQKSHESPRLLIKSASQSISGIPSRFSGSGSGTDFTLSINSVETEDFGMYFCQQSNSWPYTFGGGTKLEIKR in terms of FACS binding is 55.9
